pIC50: −log10 of the molar value.
Reported values: pIC50 for Tubulin alpha chain (Sus scrofa, UniProt P02550), one per item.

| Compound | pIC50 |
| --- | --- |
| COC(=O)Nc1nc2cc(C(=O)c3cc(CC#N)cs3)ccc2[nH]1 | 5.54 |
| COC(=O)Nc1nc2cc(C(=O)c3cccs3)ccc2[nH]1 | 5.24 |
| COC(=O)Nc1nc2cc(C(=O)c3cc(CNC(=O)OC(C)(C)C)cs3)ccc2[nH]1 | 4.63 |
| COC(=O)Nc1nc2cc(C(=O)c3cc(C(=O)C(F)(F)F)cs3)ccc2[nH]1 | 4.80 |
| COC(=O)Nc1nc2c(C)cc(C(=O)c3cccs3)cc2[nH]1 | 6.07 |
| COC(=O)Nc1nc2c(C)c(C(=O)c3cccs3)ccc2[nH]1 | 3.97 |
| COC(=O)Nc1nc2cc(C(=O)c3cc(C)cs3)ccc2[nH]1 | 4.75 |
| COC(=O)Nc1nc2ccc(C(=O)c3cc(C([N+]#N)C(F)(F)F)cs3)cc2[nH]1 (stereo not given) | 5.08 |
| COC(=O)Cc1csc(C(=O)c2ccc3[nH]c(NC(=O)OC)nc3c2)c1 | 5.30 |
| COC(=O)Nc1nc2cc(C(=O)c3cc(CC(=O)OCc4ccccc4)cs3)ccc2[nH]1 | 5.28 |
| COC(=O)Nc1nc2cc(C(=O)c3cc(CN)cs3)ccc2[nH]1 | 3.92 |
| CCOC(=O)Cc1csc(C(=O)c2ccc3[nH]c(NC(=O)OC)nc3c2)c1 | 6.06 |
| CC(C)OC(=O)Nc1nc2cc(C(=O)c3cccs3)ccc2[nH]1 | 4.85 |
| COC(=O)Nc1nc2cc(C(=O)c3cc(CC(=O)OC(C)(C)C)cs3)ccc2[nH]1 | 5.12 |
| COC(=O)Nc1nc2cc(C(=O)c3cc(CC(=O)O)cs3)ccc2[nH]1 | 3.35 |
